Data credit: ChEMBL document CHEMBL2203184

Kappa-type opioid receptor (Cavia porcellus): recorded Ki for assorted compounds
Sequence (P41144 whole entry): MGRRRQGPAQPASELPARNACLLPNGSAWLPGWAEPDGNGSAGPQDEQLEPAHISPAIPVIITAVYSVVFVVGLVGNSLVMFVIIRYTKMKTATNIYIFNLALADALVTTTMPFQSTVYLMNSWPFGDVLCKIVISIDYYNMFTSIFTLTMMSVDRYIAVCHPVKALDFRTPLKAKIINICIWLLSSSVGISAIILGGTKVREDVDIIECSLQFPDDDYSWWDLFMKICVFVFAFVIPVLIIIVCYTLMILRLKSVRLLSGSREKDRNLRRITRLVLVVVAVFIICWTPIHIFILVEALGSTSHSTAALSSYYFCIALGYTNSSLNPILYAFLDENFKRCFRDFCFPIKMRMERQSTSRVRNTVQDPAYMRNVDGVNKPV

1. CC(C)CN1CC[C@]23c4c5ccc(O)c4O[C@H]2[C@]2(CC[C@@]3(O)[C@H]1C5)O[C@@H]1N3[C@@H](OC1(C)C)C(C)(C)O[C@H]32 > 1000 nM
2. CN1CC[C@]23c4c5ccc(O)c4O[C@H]2[C@]2(CC[C@@]3(O)[C@H]1C5)O[C@@H]1CO[C@@H]3CO[C@H]2N31 109 nM
3. CC(C)CN1CC[C@]23c4c5ccc(O)c4O[C@H]2[C@]2(CC[C@@]3(O)[C@H]1C5)O[C@@H]1CO[C@@H]3CO[C@H]2N31 > 1000 nM

Fill in the recorded Ki for this compound, with Kappa-type opioid receptor (Cavia porcellus) as test system: `CC1(C)O[C@H]2N3[C@@H]1O[C@]1(CC[C@@]4(O)[C@H]5Cc6ccc(O)c7c6[C@@]4(CCN5CC4CC4)[C@H]1O7)[C@H]3OC2(C)C`
7.89 nM

Fill in the recorded Ki for this compound, with Kappa-type opioid receptor (Cavia porcellus) as test system: `CC1(C)O[C@H]2N3[C@@H]1O[C@]1(CC[C@@]4(O)[C@H]5Cc6ccc(O)c7c6[C@@]4(CCN5Cc4ccccc4)[C@H]1O7)[C@H]3OC2(C)C`
> 1000 nM

Fill in the recorded Ki for this compound, with Kappa-type opioid receptor (Cavia porcellus) as test system: `Oc1ccc2c3c1O[C@H]1[C@]4(CC[C@@]5(O)[C@@H](C2)N(CC2CC2)CC[C@]315)O[C@H]1CO[C@H]2CO[C@@H]4N21`
5.95 nM

* * *

- ASSAY_INFO: Selectivity ratio of Ki for kappa opioid receptor in guinea pig cerebellum to Ki for mu opioid receptor in mouse whole brain without cerebellum
Here the recorded Ratio Ki is given for each entry.
Give the figure by itself; no unit, no explanation.

Take a look at these entries with their results.
1. CC1(C)O[C@H]2N3[C@@H]1O[C@]1(CC[C@@]4(O)[C@H]5Cc6ccc(O)c7c6[C@@]4(CCN5CC4CC4)[C@H]1O7)[C@H]3OC2(C)C 3.69
2. CC1(C)O[C@@H]2N3[C@H]1O[C@]1(CC[C@@]4(O)[C@H]5Cc6ccc(O)c7c6[C@@]4(CCN5CC4CC4)[C@H]1O7)[C@@H]3OC2(C)C 4.52
3. Oc1ccc2c3c1O[C@H]1[C@]4(CC[C@@]5(O)[C@@H](C2)N(CC2CC2)CC[C@]315)O[C@@H]1CO[C@@H]2CO[C@H]4N21 0.446

Lab note: next compound to report on.
Given the entry `CN1CC[C@]23c4c5ccc(O)c4O[C@H]2[C@]2(CC[C@@]3(O)[C@H]1C5)O[C@@H]1CO[C@@H]3CO[C@H]2N31` , report its measured Ratio Ki.
46.6

* * *

- ASSAY_INFO: Selectivity ratio of Ki for mu opioid receptor in mouse whole brain without cerebellum to Ki for kappa opioid receptor in guinea pig cerebellum
PROPERTY_LABEL: Ratio Ki

Take a look at these entries with their results.
1) CN1CC[C@]23c4c5ccc(O)c4O[C@H]2[C@]2(CC[C@@]3(O)[C@H]1C5)O[C@H]1N3[C@H](OC1(C)C)C(C)(C)O[C@@H]32 < 0.0019
2) CN1CC[C@]23c4c5ccc(O)c4O[C@H]2[C@]2(CC[C@@]3(O)[C@H]1C5)O[C@@H]1CO[C@@H]3CO[C@H]2N31 0.0214
3) CN1CC[C@]23c4c5ccc(O)c4O[C@H]2[C@]2(CC[C@@]3(O)[C@H]1C5)O[C@@H]1N3[C@@H](OC1(C)C)C(C)(C)O[C@H]32 < 0.0027
4) CC(C)CN1CC[C@]23c4c5ccc(O)c4O[C@H]2[C@]2(CC[C@@]3(O)[C@H]1C5)O[C@H]1CO[C@H]3CO[C@@H]2N31 < 0.086
5) CC1(C)O[C@H]2N3[C@@H]1O[C@]1(CC[C@@]4(O)[C@H]5Cc6ccc(O)c7c6[C@@]4(CCN5CC4CC4)[C@H]1O7)[C@H]3OC2(C)C 0.271

Given the entry `Oc1ccc2c3c1O[C@H]1[C@]4(CC[C@@]5(O)[C@@H](C2)N(Cc2ccccc2)CC[C@]315)O[C@H]1CO[C@H]2CO[C@@H]4N21` , report its measured Ratio Ki.
< 0.581

Given the entry `CC1(C)O[C@@H]2N3[C@H]1O[C@]1(CC[C@@]4(O)[C@H]5Cc6ccc(O)c7c6[C@@]4(CCN5CC4CC4)[C@H]1O7)[C@@H]3OC2(C)C` , report its measured Ratio Ki.
0.221

Given the entry `CC1(C)O[C@H]2N3[C@@H]1O[C@]1(CC[C@@]4(O)[C@H]5Cc6ccc(O)c7c6[C@@]4(CCN5Cc4ccccc4)[C@H]1O7)[C@H]3OC2(C)C` , report its measured Ratio Ki.
< 0.45

Given the entry `CN1CC[C@]23c4c5ccc(O)c4O[C@H]2[C@]2(CC[C@@]3(O)[C@H]1C5)O[C@H]1CO[C@H]3CO[C@@H]2N31` , report its measured Ratio Ki.
< 0.0024

Given the entry `CC(C)CN1CC[C@]23c4c5ccc(O)c4O[C@H]2[C@]2(CC[C@@]3(O)[C@H]1C5)O[C@H]1N3[C@H](OC1(C)C)C(C)(C)O[C@@H]32` , report its measured Ratio Ki.
< 0.088

* * *

- TEST_TARGET: UniProt:P35372
- Sequence (P35372 whole entry): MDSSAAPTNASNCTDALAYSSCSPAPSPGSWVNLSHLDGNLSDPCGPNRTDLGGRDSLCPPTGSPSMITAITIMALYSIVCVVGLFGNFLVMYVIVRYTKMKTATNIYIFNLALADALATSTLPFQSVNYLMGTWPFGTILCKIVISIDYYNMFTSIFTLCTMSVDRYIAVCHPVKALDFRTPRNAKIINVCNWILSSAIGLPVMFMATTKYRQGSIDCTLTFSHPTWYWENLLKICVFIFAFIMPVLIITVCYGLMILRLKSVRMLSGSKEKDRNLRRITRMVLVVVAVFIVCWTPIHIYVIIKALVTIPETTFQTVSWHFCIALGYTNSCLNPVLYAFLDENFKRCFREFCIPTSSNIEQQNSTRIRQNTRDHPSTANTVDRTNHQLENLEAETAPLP
- ASSAY_INFO: Agonist activity at human mu opioid receptor expressed in CHO cells assessed as [35S]GTPgammaS binding after 2 hrs by liquid scintillation counting
PROPERTY_LABEL: pEC50
Just so you know, pEC50 here is -log10 of the concentration in molar units; reply with that number alone.

Fill in the recorded pEC50 for this compound, with UniProt:P35372 as test system: `CN1CC[C@]23c4c5ccc(O)c4O[C@H]2[C@]2(CC[C@@]3(O)[C@H]1C5)O[C@H]1N3[C@H](OC1(C)C)C(C)(C)O[C@@H]32`
8.22

* * *

- TEST_TARGET: Mu-type opioid receptor (Mus musculus)
- Sequence (P42866 whole entry): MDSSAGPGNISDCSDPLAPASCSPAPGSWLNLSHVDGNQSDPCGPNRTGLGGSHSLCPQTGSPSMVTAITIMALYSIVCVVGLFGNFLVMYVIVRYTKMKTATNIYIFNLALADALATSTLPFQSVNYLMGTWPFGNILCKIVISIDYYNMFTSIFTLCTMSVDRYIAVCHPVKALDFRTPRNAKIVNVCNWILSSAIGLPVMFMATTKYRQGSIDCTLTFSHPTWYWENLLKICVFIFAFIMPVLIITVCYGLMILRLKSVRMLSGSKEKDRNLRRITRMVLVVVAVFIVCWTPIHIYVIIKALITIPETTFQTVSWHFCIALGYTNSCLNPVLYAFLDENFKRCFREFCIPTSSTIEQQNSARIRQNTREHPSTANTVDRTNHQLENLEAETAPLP
- ASSAY_INFO: Displacement of [3H]DAMGO from mu opioid receptor in mouse whole brain without cerebellum
PROPERTY_LABEL: log10 of Ki (log10 of the value in nM)
The base-10 logarithm of Ki, taken with Ki in nM, is what appears here.

Take a look at these entries with their results.
1. CC1(C)O[C@H]2N3[C@@H]1O[C@]1(CC[C@@]4(O)[C@H]5Cc6ccc(O)c7c6[C@@]4(CCN5Cc4ccccc4)[C@H]1O7)[C@H]3OC2(C)C 2.65
2. CN1CC[C@]23c4c5ccc(O)c4O[C@H]2[C@]2(CC[C@@]3(O)[C@H]1C5)O[C@@H]1CO[C@@H]3CO[C@H]2N31 0.37
3. CC(C)CN1CC[C@]23c4c5ccc(O)c4O[C@H]2[C@]2(CC[C@@]3(O)[C@H]1C5)O[C@H]1N3[C@H](OC1(C)C)C(C)(C)O[C@@H]32 1.94

Given the entry `Oc1ccc2c3c1O[C@H]1[C@]4(CC[C@@]5(O)[C@@H](C2)N(CC2CC2)CC[C@]315)O[C@@H]1CO[C@@H]2CO[C@H]4N21` , report its measured log10 of Ki.
0.94

Given the entry `CC(C)CN1CC[C@]23c4c5ccc(O)c4O[C@H]2[C@]2(CC[C@@]3(O)[C@H]1C5)O[C@@H]1N3[C@@H](OC1(C)C)C(C)(C)O[C@H]32` , report its measured log10 of Ki.
2.13

Given the entry `CC(C)CN1CC[C@]23c4c5ccc(O)c4O[C@H]2[C@]2(CC[C@@]3(O)[C@H]1C5)O[C@@H]1CO[C@@H]3CO[C@H]2N31` , report its measured log10 of Ki.
2.00

Given the entry `CN1CC[C@]23c4c5ccc(O)c4O[C@H]2[C@]2(CC[C@@]3(O)[C@H]1C5)O[C@H]1N3[C@H](OC1(C)C)C(C)(C)O[C@@H]32` , report its measured log10 of Ki.
0.27

Given the entry `CC1(C)O[C@H]2N3[C@@H]1O[C@]1(CC[C@@]4(O)[C@H]5Cc6ccc(O)c7c6[C@@]4(CCN5CC4CC4)[C@H]1O7)[C@H]3OC2(C)C` , report its measured log10 of Ki.
0.33

* * *

- ASSAY_INFO: Selectivity ratio of Ki for delta opioid receptor in mouse whole brain without cerebellum to Ki for kappa opioid receptor in guinea pig cerebellum
PROPERTY_LABEL: Ratio Ki

Given the entry `CC(C)CN1CC[C@]23c4c5ccc(O)c4O[C@H]2[C@]2(CC[C@@]3(O)[C@H]1C5)O[C@H]1CO[C@H]3CO[C@@H]2N31` , report its measured Ratio Ki.
< 0.848

Given the entry `CN1CC[C@]23c4c5ccc(O)c4O[C@H]2[C@]2(CC[C@@]3(O)[C@H]1C5)O[C@H]1N3[C@H](OC1(C)C)C(C)(C)O[C@@H]32` , report its measured Ratio Ki.
< 0.079

Given the entry `CC(C)CN1CC[C@]23c4c5ccc(O)c4O[C@H]2[C@]2(CC[C@@]3(O)[C@H]1C5)O[C@@H]1N3[C@@H](OC1(C)C)C(C)(C)O[C@H]32` , report its measured Ratio Ki.
< 0.541
